Assay: Pharmacokinetics after a single oral administration (plasma, LC-MS/MS)
Details: male, Crl:CD1 (ICR), mouse, plasma, 4 mg/kg
Readout Kind: AUC(0-t) (ng·h/mL)
Number only, in ng·h/mL; omit the unit.

// sample CC[C@]1(c2cc(NS(=O)(=O)C3CC3)ccc2F)[C@@H]2CN(CC3(O)Cc4ccccc4C3)C[C@@H]21 [UD-030] , its AUC(0-t) was 1220

====

Assay: Pharmacokinetics after a single oral administration (plasma, LC-MS/MS)
Conditions: male, Crl:CD1 (ICR), mouse, in vivo, 1 mg/kg
Readout Kind: concentration at 2 h (ng/mL)
Your answer should be a plain number; it is taken to be in ng/mL.

concentration at 2 h measured on CC[C@]1(c2cc(NS(=O)(=O)C3CC3)ccc2F)[C@@H]2CN(CC3(O)Cc4ccccc4C3)C[C@@H]21 [UD-030] = 14.9

// data source = paper PMC9961271
